Entry source: ChEMBL document CHEMBL4014350

Biological target: Histone deacetylase 1 (Homo sapiens)
Sequence (Q13547 whole entry): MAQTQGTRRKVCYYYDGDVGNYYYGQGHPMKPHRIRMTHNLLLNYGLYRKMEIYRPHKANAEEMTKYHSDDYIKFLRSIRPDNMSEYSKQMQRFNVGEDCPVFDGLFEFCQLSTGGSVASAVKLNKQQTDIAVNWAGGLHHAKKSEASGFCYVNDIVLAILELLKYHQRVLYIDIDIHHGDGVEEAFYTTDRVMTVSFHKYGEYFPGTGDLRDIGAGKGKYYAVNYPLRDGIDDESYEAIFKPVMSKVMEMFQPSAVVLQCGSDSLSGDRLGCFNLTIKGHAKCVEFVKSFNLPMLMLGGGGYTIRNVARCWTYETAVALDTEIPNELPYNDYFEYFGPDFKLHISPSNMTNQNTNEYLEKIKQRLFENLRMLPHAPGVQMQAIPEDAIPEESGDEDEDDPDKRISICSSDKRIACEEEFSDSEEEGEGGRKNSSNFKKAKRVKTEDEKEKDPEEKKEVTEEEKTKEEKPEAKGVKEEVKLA
Assay: Inhibition of recombinant full length human C-terminal FLAG/His-tagged HDAC1 expressed in baculovirus infected sf9 cells using Z-(Ac)Lys-AMC as substrate measured after 90 mins by fluorescence assay
Task for the reader: assign each of the following molecules its reported IC50.
Numbers only, in nM.

Sample records with IC50:
> print(dat)
                    structure.smiles.string  units.label  test.value
1    COc1cc(NC(=O)NOCCCCCC(=O)NO)c2ncccc2c1           nM        51.9
2        O=C(CCCCCONC(=O)Nc1cnc2ccccc2c1)NO           nM         189
3  COc1cc(NC(=O)NOCCCCCC(=O)NO)c2nc(OC)cc(C)c2c1           nM        43.2

Proceed to the following item.
Query: Please indicate IC50 recorded for COc1cc(NC(=O)NOCCCCCC(=O)NO)c2nccc(C)c2c1
Result: 77.3
